Below: a set of entries, each annotated with reported TGI.
tested on: HOP-18 NSCLC; test: NCI tumour cell line growth inhibition, 48 h

Recorded TGI, per entry:
CC(=O)OCCOCNC(=S)N/N=C(\C)c1cnccn1    97.5 µM
CC(=O)NNc1nc(C)c(C(=O)/C=C/c2ccc(NC(C)=O)cc2)s1    > 100 µM
Nc1c(S(=O)(=O)O)cc2cc(S(=O)(=O)O)ccc2c1N=Nc1ccc(-c2ccc(N=Nc3c(N)c(S(=O)(=O)O)cc4cc(S(=O)(=O)O)ccc34)c(S(=O)(=O)O)c2)cc1    > 100 µM

Asked: Read off the recorded TGI for COC(=O)CC(c1ccccc1)C1(c2ccccc2)SCCS1 (centres undefined)
Given back: > 290 µM

---

tested on: NCI-H23 lung; experiment: NCI tumour cell line growth inhibition, 48 h
Recorded endpoint: GI50

COc1ccc2nc3cc(Cl)ccc3c(NCCNCC(C)O)c2c1 (centres undefined)    1.93 µM
COc1ccc(CN2C(=O)/C(=C\c3cc(OC)c(OC)c(OC)c3)c3ccccc32)cc1    2.35 µM

Asked: Read off the recorded GI50 for CCn1c(-c2nonc2N)nc2c(C#CC(C)(C)O)nc(OC[C@@H](N)c3ccccc3)cc21
Given back: 5.13 µM

Asked: Read off the recorded GI50 for COc1ccc(C2[C@@H](c3ccccc3)C(=O)N2c2cc(OC)c(OC)c(OC)c2)cc1F (some centres undefined)
Given back: 0.0489 µM

Asked: Read off the recorded GI50 for CC(C)[C@@H]1C=C2CC[C@H]3[C@](C)(CN)CCC[C@]3(C)[C@H]2CC1
Given back: 1.94 µM

Asked: Read off the recorded GI50 for COc1ccc(CCN=C2NC(=O)/C(=C/c3ccc4ncccc4c3)S2)cc1
Given back: > 25 µM

Asked: Read off the recorded GI50 for Nc1ccc(C2=NNC(=O)Cc3cc4c(cc32)OCCO4)cc1Cl
Given back: 5.28 µM

Asked: Read off the recorded GI50 for N#Cc1c[nH]n2c(N=Nc3ccc(Cl)cc3)c(O)nc12
Given back: 18 µM

Asked: Read off the recorded GI50 for CCCCCCCCCCCCC(O)c1ccc(C#CCCCCCCCCCO)o1 (centres undefined)
Given back: 26.4 µM

---

tested on: SK-OV-3 ovarian; assay: NCI tumour cell line growth inhibition, 48 h
Recorded endpoint: GI50

Recorded GI50, per entry:
COc1ccc2nc3cc(Cl)ccc3c(NCCNCC(C)O)c2c1 (stereo not drawn)    2.58 µM
CCn1c(-c2nonc2N)nc2c(C#CC(C)(C)O)nc(OC[C@@H](N)c3ccccc3)cc21    4.16 µM
CCN(Cc1ccc(F)cc1)c1cc(Cl)c(CO)c(Cl)c1    15.2 µM
O=C(/C(=C/c1ccc([N+](=O)[O-])cc1)SCc1ccccc1)c1ccc(Cl)cc1    14.4 µM
COCCOc1ccc(-c2nc3ccc(-c4nc5ccc(N6CCN(C)CC6)cc5[nH]4)cc3[nH]2)cc1    2.7 µM

Asked: Read off the recorded GI50 for N#CC(C#N)=C/C=C(\Sc1nc2ccccc2s1)c1ccc(Cl)cc1
Given back: 11.9 µM

---

test system: SN12C renal; assay: NCI tumour cell line growth inhibition, 48 h
Recorded endpoint: TGI

c1ccc2c(c1)Cn1c-2nc2ccccc21    > 100 µM

Asked: Supply TGI measured with SN12C renal for CC(=O)O/N=C(/C)c1ccccc1O .
Given back: > 100 µM

Asked: Supply TGI measured with SN12C renal for CC(C)[C@@H]1C=C2CC[C@H]3[C@](C)(CN)CCC[C@]3(C)[C@H]2CC1 .
Given back: 14 µM

Asked: Supply TGI measured with SN12C renal for O=C(O)c1nc2nc(Cl)c(Cl)nc2[nH]1 .
Given back: > 100 µM

Asked: Supply TGI measured with SN12C renal for COc1cccc(-c2nc(-c3ccc(NC(=O)OC(C)C)cc3)[nH]c2-c2ccnc(Br)c2)c1 .
Given back: > 100 µM

Asked: Supply TGI measured with SN12C renal for COc1ncc(/C=C2\OC(=O)c3ccccc32)c(OC)n1 .
Given back: > 100 µM

Asked: Supply TGI measured with SN12C renal for COC(=O)CC(c1ccccc1)C1(c2ccccc2)SCCS1 (stereo not drawn) .
Given back: > 290 µM

Asked: Supply TGI measured with SN12C renal for CN(C)CC1CC/C(=C\c2ccc(O)cc2)C1=O (stereo not drawn) .
Given back: 14 µM

Asked: Supply TGI measured with SN12C renal for Cc1ccc(NC(=O)CC2Sc3ccccc3NC2=O)cc1C (stereo not drawn) .
Given back: > 100 µM

Asked: Supply TGI measured with SN12C renal for Nn1c(Nc2ccc(S(=O)(=O)Nc3ncccn3)cc2)nnc(/C=C/c2c(O)ccc3ccccc23)c1=O .
Given back: > 100 µM
